Each recorded value in this set is attributed to the supplement of paper PMC9170038.

system: MS2 coat protein; experiment: apparent KD of MS2 coat protein; designed switch direction (-1 OFF switch, 1 ON switch): -1; higher = weaker reporter binding; settings: input ligand: FMN 200 uM
Property: apparent KD of MS2 coat protein; scope: individual sequences

- constructSequence: "ACAUGUAUUGCAGGAUAUGGGACACAUGAGGAUCACCCAUGUGACUACAUGUCAUACCACGGGUCUCAGAAGGGUAUGUACAUG [Ex NG2 #40] (Eterna round: R96, puzzle: Exclusion NG 2)"
  apparent KD of MS2 coat protein, µM: 0.0289
- constructSequence: "CCUAUGUGAGGAUAUCACUGGUCUUCUCACUGGAUGAUUAGUGAGAAGGCACAUGAGGAUCACCCAUGUCGGUG [Ex4 - 3 - 51] (Eterna round: R96, puzzle: Exclusion 4)"
  apparent KD of MS2 coat protein, µM: 0.633
- constructSequence: "UCGACGUCGUCAGGAUAUAGUUUUAAUGUCAUGCUUUUGUUUUUACAUGAGGAUCACCCAUGUCGCUAGAAGGGACUAAAGAUU [JR_ExcNG2_Sub013] (Eterna round: R96, puzzle: Exclusion NG 2)"
  apparent KD of MS2 coat protein, µM: 0.0367
- constructSequence: "UUUGUUUAUGUAGGAUAUGCCUGGCGUGCCUUUGCAGAAGGACAUGAGGAUCACCCAUGUAACAUGAGGCUCACCCAUGUCGCU [salish99_ExNG1_r04_111] (Eterna round: R96, puzzle: Exclusion NG 1)"
  apparent KD of MS2 coat protein, µM: 0.24
- constructSequence: "AUAUUGUGAGGAUAUGAACUUAGUAUCGAAAGAAACUAAGUUCAGAAGGCACAUGAGGAUCACCCAUGUUUCUC [Long static hairpin v10] (Eterna round: R97, puzzle: Exclusion 4)"
  apparent KD of MS2 coat protein, µM: 0.566
- constructSequence: "AUAAUGUCAGGAUAUCGAACUUACUACUUCGGUAGUAAGUUCGAGAAGGGACAUGAGGAUCACCCAUGUGAUCA [E4/1-A4] (Eterna round: R97, puzzle: Exclusion 4)"
  apparent KD of MS2 coat protein, µM: 0.0418
- constructSequence: "AGACGGAGAAAAGGAUAUGAGACACUAGACGUCUCAGAAGGUUUAGCCAGUAGCUCCAACAUGAGGAUCACCCAUGUGGUCGUA [Eternabot solution 41] (Eterna round: R96, puzzle: Exclusion NG 1)"
  apparent KD of MS2 coat protein, µM: 0.05
- constructSequence: "AAGAAGAUCAAAGGAUAUGGAGCUGAAACGGCGCUAGAAGGUUGUCUAGUGUAACAUGAGGAUCACCCAUGUAGGGACCUCUAA [AK ExNG1-V2-2] (Eterna round: R96, puzzle: Exclusion NG 1)"
  apparent KD of MS2 coat protein, µM: 0.562
- constructSequence: "UGUUGUCGCGUAGGAUAUGUAUGAGGAUCACCCAUAAGAGUAUAUUUACCAUGAGGAUCACCCAUGUAGAAGGACGGGACAACU [pwkr exNG2 2xF5 1xFMN.12] (Eterna round: R96, puzzle: Exclusion NG 2)"
  apparent KD of MS2 coat protein, µM: 0.232
